# IC50 per record follows
- STUDY_SYSTEM: G12D-mutant human KRAS (amino acid residues 1-188) (Homo sapiens, UniProt P01116, G12D)
- Construct: G12D or G12C-mutant human KRAS (amino acid residues 1-188) with FLAG tag; made in house; host or cells: E. coli
- Sequence (P01116 1-188 isoform P01116-2 G12D): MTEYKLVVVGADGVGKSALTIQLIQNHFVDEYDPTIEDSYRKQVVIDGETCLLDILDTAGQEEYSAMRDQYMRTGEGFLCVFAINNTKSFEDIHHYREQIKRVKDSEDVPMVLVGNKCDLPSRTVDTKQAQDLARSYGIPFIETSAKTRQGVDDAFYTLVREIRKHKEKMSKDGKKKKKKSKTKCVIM
- PROTOCOL_TEXT: KRAS Binding Disruption Assay (AlphaScreen; biotinylated KRpep-2d analogue or RAF1-RBD), G12D
- MEASUREMENT_CONDITIONS: KRAS G12D; geometric mean; read-out: KRAS GMean IC50 (uM) MUTATION: G12D

These solved cases illustrate the format of a correct answer.
molecule=OCCCc1nc(N2C[C@H]3CC[C@@H](C2)N3)c2ccc(-c3cc(O)cc4ccccc34)c(F)c2n1 assay_readout=IC50 observed_value="0.0001 to 10 µM"
molecule=CCC(=O)N1[C@@H]2CC[C@H]1CN(c1nc(OCC34CCCN3CCC4)nc3cc(-c4cc(O)cc5ccccc45)ccc13)C2 assay_readout=IC50 observed_value="0.0001 to 10 µM"
molecule=CC(C)(C)c1ccc2[nH]cc(-c3ccc4c(N5C[C@H]6CC[C@@H](C5)N6)nc(OCC56CCCN5CCC6)nc4c3F)c2c1 assay_readout=IC50 observed_value="10 to 100 µM"

Input line: GET /values?readout=IC50&item= "CN1CCc2ccc(Oc3nc(N4[C@@H]5CC[C@H]4CNC5)c4ccc(-c5cc(O)cc6ccccc56)cc4n3)cc2C1"
Output line: 10 to 100 µM

Input line: Any idea what its IC50 is? The molecule is "Oc1cc(-c2ncc3c(N4C[C@H]5CC[C@@H](C4)N5)nc(OCC45CCCN4CCC5)nc3c2F)c2ccccc2c1"
Output line: 0.0001 to 10 µM

Input line: Give the measured IC50 of CN1C(=O)C(CC(=O)N2[C@@H]3CC[C@H]2CN(c2nc(OCC45CCCN4CCC5)nc4c(F)c(-c5cc(O)cc6ccccc56)ccc24)C3)N(C)C1=O (some centres unmarked) .
Output line: 0.0001 to 10 µM

Input line: So what's the measured IC50 for this one? "Oc1cc(-c2ccc3c(N4[C@@H]5CC[C@H]4CNC5)nc(CC4CCNCC4)nc3c2)c2ccccc2c1"
Output line: 0.0001 to 10 µM

Input line: Which IC50 value belongs to "CN1CCC[C@H]1COc1nc(N2C[C@H]3CC[C@@H](C2)N3)c2ccc(-c3c(O)cccc3F)cc2n1" ?
Output line: 10 to 100 µM

Input line: // query IC50 value for entry NCC(O)CC(=O)N1[C@@H]2CC[C@H]1CN(c1nc(OCC34CCCN3CCC4)nc3cc(-c4cc(O)cc5ccccc45)ccc13)C2 (some centres unmarked)
Output line: 0.0001 to 10 µM

Input line: I am curious: what IC50 value has been reported for "CN1CC(F)(F)C[C@H]1COc1nc(N2C[C@H]3CC[C@@H](C2)N3)c2ccc(-c3cc(O)cc4ccccc34)c(F)c2n1" ?
Output line: 0.0001 to 10 µM
